Examples of compounds with documented pIC50 follow.
target: PI3Kδ (Homo sapiens, UniProt O00329)
Sequence (O00329 whole entry): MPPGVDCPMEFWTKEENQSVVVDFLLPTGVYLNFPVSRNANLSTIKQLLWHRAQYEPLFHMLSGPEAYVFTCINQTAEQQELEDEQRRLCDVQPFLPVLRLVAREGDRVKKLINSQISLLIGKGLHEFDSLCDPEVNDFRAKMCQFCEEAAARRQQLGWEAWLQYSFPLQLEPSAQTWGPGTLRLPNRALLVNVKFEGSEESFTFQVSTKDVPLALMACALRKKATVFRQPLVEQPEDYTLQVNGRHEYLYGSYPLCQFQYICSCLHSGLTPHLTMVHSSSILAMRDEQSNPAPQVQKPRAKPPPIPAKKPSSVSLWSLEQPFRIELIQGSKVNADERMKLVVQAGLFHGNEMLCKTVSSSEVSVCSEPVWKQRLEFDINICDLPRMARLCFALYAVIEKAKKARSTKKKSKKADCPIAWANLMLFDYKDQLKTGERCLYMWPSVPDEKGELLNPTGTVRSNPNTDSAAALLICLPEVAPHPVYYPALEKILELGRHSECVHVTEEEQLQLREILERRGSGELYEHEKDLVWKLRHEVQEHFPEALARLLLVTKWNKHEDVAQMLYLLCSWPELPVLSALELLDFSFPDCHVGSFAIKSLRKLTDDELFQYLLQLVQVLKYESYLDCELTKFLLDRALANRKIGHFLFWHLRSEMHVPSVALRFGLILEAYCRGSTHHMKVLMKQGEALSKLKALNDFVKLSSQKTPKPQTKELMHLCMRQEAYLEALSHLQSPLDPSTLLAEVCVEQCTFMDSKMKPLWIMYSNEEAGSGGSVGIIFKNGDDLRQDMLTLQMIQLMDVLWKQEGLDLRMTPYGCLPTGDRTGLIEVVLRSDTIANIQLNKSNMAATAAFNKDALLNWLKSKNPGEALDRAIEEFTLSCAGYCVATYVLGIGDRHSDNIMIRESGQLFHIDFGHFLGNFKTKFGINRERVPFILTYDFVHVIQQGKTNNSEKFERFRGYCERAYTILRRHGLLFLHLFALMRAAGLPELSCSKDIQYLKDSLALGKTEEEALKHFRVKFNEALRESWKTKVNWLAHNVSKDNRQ
Sequence (P27986 whole entry partner): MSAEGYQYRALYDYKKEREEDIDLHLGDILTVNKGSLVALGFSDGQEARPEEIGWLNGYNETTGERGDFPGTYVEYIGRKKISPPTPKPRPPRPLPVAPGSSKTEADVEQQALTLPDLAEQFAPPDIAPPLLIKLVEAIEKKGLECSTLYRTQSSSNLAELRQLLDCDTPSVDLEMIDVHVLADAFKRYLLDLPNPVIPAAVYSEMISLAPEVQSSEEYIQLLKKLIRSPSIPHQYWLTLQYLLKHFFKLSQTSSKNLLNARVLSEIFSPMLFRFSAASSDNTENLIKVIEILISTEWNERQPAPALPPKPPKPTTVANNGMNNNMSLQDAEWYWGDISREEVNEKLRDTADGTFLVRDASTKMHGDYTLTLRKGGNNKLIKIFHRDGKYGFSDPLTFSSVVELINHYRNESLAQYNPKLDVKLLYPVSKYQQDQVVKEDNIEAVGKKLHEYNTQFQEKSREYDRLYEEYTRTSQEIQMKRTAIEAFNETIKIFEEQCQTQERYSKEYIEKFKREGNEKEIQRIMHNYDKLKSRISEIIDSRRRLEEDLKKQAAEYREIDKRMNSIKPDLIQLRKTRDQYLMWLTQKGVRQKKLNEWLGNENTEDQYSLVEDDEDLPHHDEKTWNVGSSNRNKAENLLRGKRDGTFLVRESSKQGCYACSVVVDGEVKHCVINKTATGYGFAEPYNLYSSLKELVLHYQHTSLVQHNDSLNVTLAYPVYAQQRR
pIC50: −log10 of the molar value.
recordedMetric: pIC50

>>> result("C[C@H](Nc1ncnc2scnc12)c1cc2cccc(Cl)c2c(C(=O)NC2CCCC2)n1")
"> 7.00"
>>> result("C[C@H](Nc1ncnc2cccnc12)c1cc2cccc(Cl)c2c(CCN2CCOCC2)n1")
"> 7.00"
>>> result("C[C@H](Nc1ncnc2ccccc12)c1cc2cccc(Cl)c2c(CCN2CCOCC2)n1")
"> 7.00"
>>> result("C[C@H](Nc1ncnc2[nH]cnc12)c1cc2cccc(Cl)c2c(OCC(=O)N2CCN(C)CC2)n1")
"> 7.00"
>>> result("C[C@H](Nc1ncnc2cccnc12)c1cc2cccc(Cl)c2c(C(=O)N2C3CCC2COC3)n1")
"> 7.00"
>>> result("C[C@H](Nc1ncnc2[nH]cnc12)c1cc2cccc(Cl)c2c(CN2CCC2)n1")
"> 6.00"
>>> result("C[C@H](Nc1ncnc2cccnc12)c1cc2cccc(-c3cnn(C)c3)c2c(OCCN2CCCC2)n1")
"> 6.00"
>>> result("C[C@H](Nc1ncnc2[nH]cnc12)c1cc2cccc(Cl)c2c(CC(=O)N2CCN(C)CC2)n1")
"> 6.00"

====

This document collects IC50 values reported for PI3Kα (Homo sapiens, UniProt P42336).
recordedMetric: IC50

>>> result("C[C@H](Nc1ncnc2scnc12)c1cc2cccc(Cl)c2c(C(=O)N2CCOC[C@H]2C)n1")
"< 10 µM"
>>> result("C[C@H](Nc1ncnc2[nH]cnc12)c1cc2cccc(C(F)(F)F)c2c(N2CCN(C)CC2)n1")
"> 10 µM"
>>> result("C[C@H](Nc1ncnc2cccnc12)c1cc2cccc(Cl)c2c(OCCN2CCCC2)n1")
"< 1 µM"
>>> result("C[C@H](Nc1ncnc2[nH]cnc12)c1cc2cccc(Cl)c2c(C(=O)NC2CCC2)n1")
"> 10 µM"
>>> result("CCN1CCC(NC(=O)c2nc([C@H](C)Nc3ncnc4scnc34)cc3cccc(Cl)c23)CC1")
"< 10 µM"
>>> result("C[C@H](Nc1ncnc2[nH]cc(C#N)c12)c1cc2cccc(Cl)c2c(C(=O)N2C3CCC2COC3)n1")
"> 10 µM"
>>> result("C[C@H](Nc1ncnc2[nH]cnc12)c1cc2cccc(Cl)c2c(N2CCN(C)CC2)n1")
"> 10 µM"
>>> result("CC1CN(C(=O)c2nc([C@H](C)Nc3ncnc4cccnc34)cc3cccc(Cl)c23)CCO1 (some centres unmarked)")
"< 10 µM"

====

Reported IC50 values follow for various compounds
target: PI3Kγ (Homo sapiens)
Sequence (P48736 whole entry): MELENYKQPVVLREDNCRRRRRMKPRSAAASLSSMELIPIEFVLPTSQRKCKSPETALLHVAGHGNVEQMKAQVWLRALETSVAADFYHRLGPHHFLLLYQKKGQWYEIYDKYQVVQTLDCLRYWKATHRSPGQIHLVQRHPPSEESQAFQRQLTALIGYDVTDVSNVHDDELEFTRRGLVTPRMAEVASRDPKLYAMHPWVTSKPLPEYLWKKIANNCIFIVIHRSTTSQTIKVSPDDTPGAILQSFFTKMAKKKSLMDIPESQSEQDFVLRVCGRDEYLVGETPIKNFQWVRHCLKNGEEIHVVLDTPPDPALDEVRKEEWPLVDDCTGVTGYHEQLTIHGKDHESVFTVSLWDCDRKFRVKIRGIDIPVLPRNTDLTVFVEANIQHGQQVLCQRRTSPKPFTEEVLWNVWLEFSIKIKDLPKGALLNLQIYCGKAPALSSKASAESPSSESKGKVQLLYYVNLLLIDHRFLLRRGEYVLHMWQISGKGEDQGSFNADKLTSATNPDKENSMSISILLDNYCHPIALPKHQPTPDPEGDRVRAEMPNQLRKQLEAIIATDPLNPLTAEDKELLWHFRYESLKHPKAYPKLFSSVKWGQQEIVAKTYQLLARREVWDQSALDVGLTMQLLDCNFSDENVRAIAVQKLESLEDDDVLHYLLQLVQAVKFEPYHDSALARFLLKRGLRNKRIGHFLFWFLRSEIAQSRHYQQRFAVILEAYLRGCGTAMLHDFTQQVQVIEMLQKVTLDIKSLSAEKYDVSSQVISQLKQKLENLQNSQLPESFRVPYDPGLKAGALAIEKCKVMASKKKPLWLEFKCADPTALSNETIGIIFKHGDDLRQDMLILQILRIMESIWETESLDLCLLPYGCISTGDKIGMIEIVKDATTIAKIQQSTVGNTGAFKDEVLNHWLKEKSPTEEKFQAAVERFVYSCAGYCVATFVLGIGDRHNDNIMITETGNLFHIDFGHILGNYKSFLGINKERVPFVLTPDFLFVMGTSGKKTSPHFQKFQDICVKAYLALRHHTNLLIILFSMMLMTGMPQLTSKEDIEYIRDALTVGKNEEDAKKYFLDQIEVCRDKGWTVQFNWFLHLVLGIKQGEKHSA
recordedMetric: IC50

>>> result("C[C@H](Nc1ncnc2[nH]cnc12)c1cc2cccc(Cl)c2c(C(=O)N2CCC(O)CC2)n1 [Compound 28]")
"< 1 µM"
>>> result("C[C@H](Nc1ncnc2scnc12)c1cc2cccc(Cl)c2c(CCN2CCOCC2)n1 [Compound 72]")
"< 10 µM"
>>> result("C[C@H](Nc1ncnc2scnc12)c1cc2cccc(Cl)c2c(C(=O)NC2CCN(C)CC2)n1 [Compound 210]")
"> 10 µM"
>>> result("Cc1cccc2cc([C@H](C)Nc3ncnc4[nH]cnc34)nc(CCN3CCOCC3)c12 [Compound 146]")
"< 10 µM"
>>> result("CNC(=O)COc1nc([C@H](C)Nc2ncnc3[nH]cnc23)cc2cccc(Cl)c12 [Compound 44]")
"< 1 µM"
>>> result("CC(C)N1CCC(Oc2nc([C@H](C)Nc3ncnc4cccnc34)cc3cccc(Cl)c23)CC1 [Compound 108]")
"< 0.1 µM"
>>> result("C[C@H](Nc1ncnc2[nH]cnc12)c1cc2cccc(Cl)c2c(CC(=O)N2CCCC2)n1 [Compound 36]")
"< 10 µM"
>>> result("C[C@H](Nc1ncnc2cccnc12)c1cc2cccc(Cl)c2c(C(=O)N2C3CCC2COC3)n1 [Compound 123]")
"< 1 µM"
>>> result("C[C@H](Nc1ccnc2ccnn12)c1cc2cccc(Cl)c2c(OCCN2CCCC2)n1 [Compound 106]")
"< 10 µM"
>>> result("C[C@H](Nc1ncnc2cccnc12)c1cc2cccc(Cl)c2c(C(=O)NC2CCOCC2)n1 [Compound 143]")
"< 10 µM"
>>> result("C[C@H](Nc1ncnc2cccnc12)c1cc2cccc(Cl)c2c(C(=O)N2CCC(F)(F)CC2)n1 [Compound 226]")
"< 10 µM"
>>> result("C[C@H](Nc1ncnc2[nH]cnc12)c1cc2cccc(-c3cnn(C)c3)c2c(C(=O)N2C3CCC2COC3)n1 [Compound 201]")
"< 1 µM"
>>> result("C[C@H](Nc1ncnc2[nH]cnc12)c1cc2cccc(Cl)c2c(C(=O)N2CCOCC2)n1 [Compound 13]")
"< 0.1 µM"
>>> result("C[C@H](Nc1ncnc2[nH]cc(F)c12)c1cc2cccc(Cl)c2c(C(=O)N2C3CCC2COC3)n1 [Compound 208]")
"< 1 µM"
>>> result("C[C@H](Nc1ncnc2scnc12)c1cc2cccc(Cl)c2c(N2CCN(C)CC2)n1 [Compound 98]")
"< 10 µM"
>>> result("C[C@H](Nc1ncnc2[nH]cnc12)c1cc2cccc(Cl)c2c(C(=O)N2CCCC2)n1 [Compound 14]")
"< 10 µM"
>>> result("C[C@H](Nc1ncnc2[nH]cnc12)c1cc2cccc(Cl)c2c(CC(=O)N2CCN(C)CC2)n1 [Compound 37]")
"> 10 µM"
>>> result("C[C@H](Nc1ncnc2[nH]cnc12)c1cc2cccc(Cl)c2c(C(=O)N2CC(O)C2)n1 [Compound 22]")
"< 1 µM"
>>> result("C[C@H](Nc1ncnc2[nH]cnc12)c1cc2cc(F)ccc2c(CCN2CCOCC2)n1 [Compound 55]")
"> 10 µM"
>>> result("C[C@H](Nc1ncnc2cccnc12)c1cc2cccc(-c3cnn(C)c3)c2c(N2CCN(C)CC2)n1 [Compound 243]")
"< 10 µM"
>>> result("C[C@H](Nc1ncnc2[nH]cnc12)c1cc2cccc(Cl)c2c([S+]([O-])CCN2CCCC2)n1 (stereo partly shown) [Compound 136]")
"< 10 µM"
>>> result("C[C@H](Nc1ncnc2[nH]cnc12)c1cc2cccc(Cl)c2c(OCC(=O)N2CCN(C)CC2)n1 [Compound 42]")
"> 10 µM"
>>> result("C[C@H](Nc1ncnc2[nH]cnc12)c1nc(CCN2CCOCC2)c2c(Cl)cccc2c1F [Compound 85]")
"> 10 µM"
>>> result("C[C@H](Nc1ncnc2[nH]cnc12)c1cc2cccc(Cl)c2c(SCCN2CCOCC2)n1 [Compound 93]")
"< 1 µM"
>>> result("Cc1cccc2cc([C@H](C)Nc3ncnc4cccnc34)nc(C(=O)N3C4CCC3COC4)c12 [Compound 167]")
"< 1 µM"
>>> result("C[C@H](Nc1ncnc2cccnc12)c1cc2cccc(Cl)c2c(C(=O)N2CCOCC2)n1 [Compound 115]")
"< 1 µM"
>>> result("C[C@H](NC(=O)c1nccnc1N)c1cc2cccc(Cl)c2c(CCN2CCOCC2)n1 [Compound 89]")
"< 10 µM"
>>> result("Cc1nc([C@H](C)Nc2ncnc3[nH]cnc23)cc2cccc(-c3cnn(C)c3)c12 [Compound 171]")
"< 10 µM"
>>> result("C[C@H](Nc1ncnc2[nH]cnc12)c1cc2cccc(C(F)(F)F)c2c(N2CCN(C)CC2)n1 [Compound 111]")
"< 10 µM"
>>> result("C[C@H](Nc1ncnc2[nH]cc(C#N)c12)c1cc2cccc(Cl)c2c(C(=O)N2C3CCC2COC3)n1 [Compound 206]")
"< 10 µM"
>>> result("Cc1cccc2cc([C@H](C)Nc3ncnc4cccnc34)nc(N3CCN(C)CC3)c12 [Compound 164]")
"< 10 µM"

====

pIC50: −log10 of the molar value.
// PI3Kγ (Homo sapiens, UniProt P48736) pIC50 records
recordedMetric: pIC50

>>> result("Cc1cccc2cc([C@H](C)Nc3ncnc4cccnc34)nc(C(=O)N3CCOCC3)c12")
"> 6.00"
>>> result("C[C@@H](Nc1ncnc2[nH]cnc12)c1cc2cccc(Cl)c2c(CN2CCCC2)n1")
"< 5.00"
>>> result("C[C@H](Nc1ncnc2cccnc12)c1cc2cccc(Cl)c2c(C(=O)N(C)C)n1")
"> 6.00"
>>> result("C[C@H](Nc1cc(Cl)nn2ccnc12)c1cc2ccccc2c(CCN2CCOCC2)n1")
"< 5.00"
>>> result("C[C@H](Nc1ncnc2cccnc12)c1cc2cccc(Cl)c2c(C(=O)N2CCOC[C@@H]2C)n1")
"> 6.00"
>>> result("C[C@H](Nc1ncnc2[nH]cnc12)c1cc2cccc(Cl)c2c(C(=O)NCc2ccccc2)n1")
"> 6.00"
>>> result("C[C@H](Nc1ncnc2cccnc12)c1cc2cccc(-c3cnn(C)c3)c2c(C(=O)N2C3CCC2COC3)n1")
"< 5.00"
>>> result("C[C@H](Nc1ncnc2cccnc12)c1cc2cccc(-c3cnn(C)c3)c2c(OCCN2CCCC2)n1")
"> 5.00"
